Please respond with reported pKi for every item in the list.
Biological target: Carboxypeptidase B (Helicoverpa zea, UniProt Q3T905)
Assay: Inhibition of corn earworm recombinant carboxypeptidase B expressed in Pichia pastoris system
Conditions: read-out: Ki
Note: pKi values are expressed as the negative base-10 logarithm of concentration in M.

Prompt line: Data request, read-out pKi, for O=C(CSc1nnc(-c2ccccc2F)o1)OCc1ccccc1
Response line: 4.48

Prompt line: Data request, read-out pKi, for Cc1cc(S(=O)(=O)N(Cc2ccco2)Cc2ccccc2Cl)ccc1-n1cnnn1
Response line: 4.90

Prompt line: Data request, read-out pKi, for Cc1cccc(CCc2nnc(SCC(=O)O)n2Cc2ccccc2)c1
Response line: 4.24

Prompt line: Data request, read-out pKi, for Cc1ccc(C)c2c1[nH]c1nc(SCC(=O)c3ccc(F)cc3)nnc12
Response line: 5.05

Prompt line: Data request, read-out pKi, for COC(=O)CSc1nnc(-c2ccccc2O)n1Cc1ccccc1
Response line: 4.38

Prompt line: Data request, read-out pKi, for O=C(C1CC1)N(Cc1ccccc1)c1nc(-c2ccccc2)cs1
Response line: 5.92

###

Target: Carboxypeptidase A1 (Bos taurus)
Sequence (P00730 whole entry): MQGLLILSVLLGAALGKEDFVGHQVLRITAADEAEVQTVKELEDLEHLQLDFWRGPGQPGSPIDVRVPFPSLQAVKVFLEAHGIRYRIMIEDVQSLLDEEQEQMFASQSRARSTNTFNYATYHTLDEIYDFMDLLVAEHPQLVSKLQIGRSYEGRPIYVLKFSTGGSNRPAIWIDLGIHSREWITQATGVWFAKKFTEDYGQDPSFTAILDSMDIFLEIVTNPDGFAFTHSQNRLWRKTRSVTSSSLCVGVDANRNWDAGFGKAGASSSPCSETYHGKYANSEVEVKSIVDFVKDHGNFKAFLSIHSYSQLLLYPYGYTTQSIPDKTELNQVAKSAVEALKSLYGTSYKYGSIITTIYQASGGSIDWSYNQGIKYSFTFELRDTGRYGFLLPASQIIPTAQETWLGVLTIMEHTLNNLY
parameter.measured: pKi
Note: pKi values are expressed as the negative base-10 logarithm of concentration in M.

Prompt line: Find the measured pKi: item O=C(CSc1nnc(-c2ccccc2O)o1)c1ccc(Cl)cc1 , target or system Carboxypeptidase A1 (Bos taurus).
Response line: 5.68

Prompt line: Find the measured pKi: item CCCN(C(=O)Cc1ccccc1OC)c1nnc(-c2ccc(OC)cc2)s1 , target or system Carboxypeptidase A1 (Bos taurus).
Response line: 3.89

Prompt line: Find the measured pKi: item O=C(CSc1nnc(-c2ccco2)n1Cc1ccccc1)c1ccc(F)cc1 , target or system Carboxypeptidase A1 (Bos taurus).
Response line: 3.63

Prompt line: Find the measured pKi: item O=C(CSc1nnc(-c2ccccc2F)o1)OCc1ccccc1 , target or system Carboxypeptidase A1 (Bos taurus).
Response line: 4.49

Prompt line: Find the measured pKi: item COc1cccc(CSc2nnc(Cc3csc(Nc4cccc(Cl)c4)n3)o2)c1 , target or system Carboxypeptidase A1 (Bos taurus).
Response line: 4.65

Prompt line: Find the measured pKi: item COc1cccc(CN(Cc2cccnc2)S(=O)(=O)c2ccc(-n3cnnn3)c(C)c2)c1 , target or system Carboxypeptidase A1 (Bos taurus).
Response line: 3.83

Prompt line: Find the measured pKi: item Cc1ccc(C)c2c1[nH]c1nc(SCC(=O)c3ccc(F)cc3)nnc12 , target or system Carboxypeptidase A1 (Bos taurus).
Response line: 4.06

Prompt line: Find the measured pKi: item O=C(CSc1nnc(-c2ccc(O)cc2)n1Cc1ccco1)c1cccs1 , target or system Carboxypeptidase A1 (Bos taurus).
Response line: 4.13

Prompt line: Find the measured pKi: item CCOC(=O)C(Sc1nnc(COc2ccc(CC)cc2)n1CC)C(C)C (stereo unspecified) , target or system Carboxypeptidase A1 (Bos taurus).
Response line: 4.66

Prompt line: Find the measured pKi: item O=S(=O)(NCc1cccs1)c1ccc(-c2nnc(SCc3ccccc3Cl)o2)cc1 , target or system Carboxypeptidase A1 (Bos taurus).
Response line: 4.17

Prompt line: Find the measured pKi: item COC(=O)CSc1nnc(-c2ccccc2O)n1Cc1ccccc1 , target or system Carboxypeptidase A1 (Bos taurus).
Response line: 3.80

###

Target: Carboxypeptidase B (Helicoverpa zea)
Sequence (Q3T905 whole entry): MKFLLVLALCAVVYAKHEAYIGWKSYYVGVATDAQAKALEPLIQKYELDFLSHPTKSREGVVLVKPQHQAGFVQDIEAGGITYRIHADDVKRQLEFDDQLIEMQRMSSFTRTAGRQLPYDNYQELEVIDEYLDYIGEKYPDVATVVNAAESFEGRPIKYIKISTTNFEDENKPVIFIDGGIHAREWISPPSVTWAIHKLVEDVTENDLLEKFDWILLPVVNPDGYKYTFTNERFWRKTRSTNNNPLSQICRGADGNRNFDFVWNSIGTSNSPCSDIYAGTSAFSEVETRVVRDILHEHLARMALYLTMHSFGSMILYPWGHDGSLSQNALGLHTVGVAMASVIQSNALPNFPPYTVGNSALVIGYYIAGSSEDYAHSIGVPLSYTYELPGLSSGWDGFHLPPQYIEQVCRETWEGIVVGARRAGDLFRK
Test: Inhibition of corn earworm recombinant carboxypeptidase B expressed in Pichia pastoris system
Conditions: read-out: Ki
Mark each entry 1 if its Ki sits below 30 µM, and -1 for all others.

Prompt line: # strict comparison: is reported Ki < 30 µM? input = O=S(=O)(NCc1cccs1)c1ccc(-c2nnc(SCc3ccccc3Cl)o2)cc1
Response line: 1

Prompt line: # strict comparison: is reported Ki < 30 µM? input = COc1cccc(CSc2nnc(Cc3csc(Nc4cccc(Cl)c4)n3)o2)c1
Response line: 1

Prompt line: # strict comparison: is reported Ki < 30 µM? input = Cc1ccccc1CCNS(=O)(=O)c1ccc(-n2cnnn2)c(C)c1
Response line: -1

Prompt line: # strict comparison: is reported Ki < 30 µM? input = COc1ccccc1-c1nnc(SCC(=O)OC(C)C)n1Cc1ccccc1
Response line: -1

Prompt line: # strict comparison: is reported Ki < 30 µM? input = COc1cccc(CN(Cc2cccnc2)S(=O)(=O)c2ccc(-n3cnnn3)c(C)c2)c1
Response line: 1

Prompt line: # strict comparison: is reported Ki < 30 µM? input = COc1ccc(C(=O)Cn2nnc(-c3ccccc3NC(=O)C3CC3)n2)cc1
Response line: -1

Prompt line: # strict comparison: is reported Ki < 30 µM? input = O=C(O)CC(Cc1ccccc1)C(=O)O (racemic)
Response line: 1

Prompt line: # strict comparison: is reported Ki < 30 µM? input = O=C(O)c1ccccc1C(=O)N1CCC(C(=O)c2ccccc2)CC1
Response line: 1

Prompt line: # strict comparison: is reported Ki < 30 µM? input = Cc1ccccc1-c1nnc(SCC(=O)c2ccccc2F)o1
Response line: -1

Prompt line: # strict comparison: is reported Ki < 30 µM? input = Cc1ccc(C(=O)CSc2nnc(COc3ccc(Cl)cc3)o2)cc1
Response line: 1

Prompt line: # strict comparison: is reported Ki < 30 µM? input = CCOC(=O)C(Sc1nnc(COc2ccc(CC)cc2)n1CC)C(C)C (configuration not stated)
Response line: 1

Prompt line: # strict comparison: is reported Ki < 30 µM? input = CCCN(C(=O)Cc1ccccc1OC)c1nnc(-c2ccc(OC)cc2)s1
Response line: 1

Prompt line: # strict comparison: is reported Ki < 30 µM? input = Cc1ccc(S(=O)(=O)N2CCN(C(=O)CNCc3ccncc3)CC2)cc1
Response line: 1

Prompt line: # strict comparison: is reported Ki < 30 µM? input = O=C(CSc1nnc(-c2ccccc2O)o1)c1ccc(Cl)cc1
Response line: 1

Prompt line: # strict comparison: is reported Ki < 30 µM? input = O=C(O)c1cccc(-n2nnnc2SCC(=O)c2ccccc2F)c1
Response line: -1

Prompt line: # strict comparison: is reported Ki < 30 µM? input = NC(=O)CSc1nnc(-c2cccs2)n1Cc1ccccc1
Response line: 1

###

Biological target: Carboxypeptidase B (Homo sapiens, UniProt P15086)
Sequence (P15086 whole entry): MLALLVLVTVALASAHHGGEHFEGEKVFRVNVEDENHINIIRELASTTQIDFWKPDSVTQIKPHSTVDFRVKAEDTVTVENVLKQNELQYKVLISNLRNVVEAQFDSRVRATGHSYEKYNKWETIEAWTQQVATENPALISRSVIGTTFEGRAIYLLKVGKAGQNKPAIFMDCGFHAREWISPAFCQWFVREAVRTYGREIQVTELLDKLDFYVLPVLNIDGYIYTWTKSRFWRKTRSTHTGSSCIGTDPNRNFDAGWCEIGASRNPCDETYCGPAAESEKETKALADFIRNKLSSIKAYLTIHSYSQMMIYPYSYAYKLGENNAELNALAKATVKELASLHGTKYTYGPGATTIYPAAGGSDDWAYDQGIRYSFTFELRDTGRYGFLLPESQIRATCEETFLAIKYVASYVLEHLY
Test: Inhibition of human recombinant carboxypeptidase B expressed in Pichia pastoris system
parameter.measured: Ki (µM)
Reply numerically in µM, unit not repeated.

Prompt line: Find the measured Ki: item Cc1ccccc1CCNS(=O)(=O)c1ccc(-n2cnnn2)c(C)c1 , target or system Carboxypeptidase B (Homo sapiens, UniProt P15086).
Response line: 25.9

Prompt line: Find the measured Ki: item O=C(O)c1ccccc1C(=O)N1CCC(C(=O)c2ccccc2)CC1 , target or system Carboxypeptidase B (Homo sapiens, UniProt P15086).
Response line: 20.7

Prompt line: Find the measured Ki: item COc1ccc(C(=O)Cn2nnc(-c3ccccc3NC(=O)C3CC3)n2)cc1 , target or system Carboxypeptidase B (Homo sapiens, UniProt P15086).
Response line: 292

Prompt line: Find the measured Ki: item CCCN(C(=O)Cc1ccccc1OC)c1nnc(-c2ccc(OC)cc2)s1 , target or system Carboxypeptidase B (Homo sapiens, UniProt P15086).
Response line: 25.1

Prompt line: Find the measured Ki: item O=C(CSc1nnc(-c2ccc(O)cc2)n1Cc1ccco1)c1cccs1 , target or system Carboxypeptidase B (Homo sapiens, UniProt P15086).
Response line: 9.1

Prompt line: Find the measured Ki: item Cc1ccc(S(=O)(=O)N2CCN(C(=O)CNCc3ccncc3)CC2)cc1 , target or system Carboxypeptidase B (Homo sapiens, UniProt P15086).
Response line: 364

Prompt line: Find the measured Ki: item COc1cccc(CN(Cc2cccnc2)S(=O)(=O)c2ccc(-n3cnnn3)c(C)c2)c1 , target or system Carboxypeptidase B (Homo sapiens, UniProt P15086).
Response line: 23.9

Prompt line: Find the measured Ki: item NC(=O)CSc1nnc(-c2cccs2)n1Cc1ccccc1 , target or system Carboxypeptidase B (Homo sapiens, UniProt P15086).
Response line: 11.6

Prompt line: Find the measured Ki: item O=C(CSc1nnc(-c2ccco2)n1Cc1ccccc1)c1ccc(F)cc1 , target or system Carboxypeptidase B (Homo sapiens, UniProt P15086).
Response line: 74.5

Prompt line: Find the measured Ki: item Cc1ccccc1-c1nnc(SCC(=O)c2ccccc2F)o1 , target or system Carboxypeptidase B (Homo sapiens, UniProt P15086).
Response line: 14.7

Prompt line: Find the measured Ki: item Cc1ccc(C(=O)CSc2nnc(COc3ccc(Cl)cc3)o2)cc1 , target or system Carboxypeptidase B (Homo sapiens, UniProt P15086).
Response line: 11.7

Data origin, for the record: ChEMBL document CHEMBL1153015
